B1: SMTNL2 (parent)
chain: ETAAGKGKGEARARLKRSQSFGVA

# Variants of: B1
# Experiment summary: protein stability index of a GFP-peptide fusion (GPS, HEK-293T) (PSI 1-6); higher = more stable;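 also: lentivirally expressed fusions sorted by FACS into six bins by GFP to DsRed ratio, PSI derived from sequencing read proportions per bin multiplied by bin number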
# Setup conditions: c terminus: a fixed tail appended
Note to self: values exactly at 4 are criterion met. So protein stability index at or above 4 is criterion met, below is criterion not met.

Solved cases (4 shown):
G22T ... criterion met
G9I ... criterion met
E1T ... criterion not met
K8D ... criterion met

Please find the next variant below.
Task: protein stability index >= 4 for `G7E` ?
Output: criterion met

Numbers sourced from the supplement of paper PMC10567573.
